Source: the supplement of paper PMC10065799

So I've got a bunch of sequences here, and I need their phosphorylation enrichment values.
target: EPHB1 (UniProt P54762); experiment: phosphorylation enrichment, bacterial display (enrichment ratio); higher = better substrate or ligand; peptides without Tyr show the background;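 also: 11-residue human phosphosite peptides and single-mutation variants displayed on the E. coli surface, counted by deep sequencing, each peptide's frequency after selection divided by its frequency in the unselected input library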;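 also: frequency after pTyr selection over input frequency; kinase dosed for 20-30% of maximal phosphorylation in three min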
Sequence (P54762 whole entry, looked up): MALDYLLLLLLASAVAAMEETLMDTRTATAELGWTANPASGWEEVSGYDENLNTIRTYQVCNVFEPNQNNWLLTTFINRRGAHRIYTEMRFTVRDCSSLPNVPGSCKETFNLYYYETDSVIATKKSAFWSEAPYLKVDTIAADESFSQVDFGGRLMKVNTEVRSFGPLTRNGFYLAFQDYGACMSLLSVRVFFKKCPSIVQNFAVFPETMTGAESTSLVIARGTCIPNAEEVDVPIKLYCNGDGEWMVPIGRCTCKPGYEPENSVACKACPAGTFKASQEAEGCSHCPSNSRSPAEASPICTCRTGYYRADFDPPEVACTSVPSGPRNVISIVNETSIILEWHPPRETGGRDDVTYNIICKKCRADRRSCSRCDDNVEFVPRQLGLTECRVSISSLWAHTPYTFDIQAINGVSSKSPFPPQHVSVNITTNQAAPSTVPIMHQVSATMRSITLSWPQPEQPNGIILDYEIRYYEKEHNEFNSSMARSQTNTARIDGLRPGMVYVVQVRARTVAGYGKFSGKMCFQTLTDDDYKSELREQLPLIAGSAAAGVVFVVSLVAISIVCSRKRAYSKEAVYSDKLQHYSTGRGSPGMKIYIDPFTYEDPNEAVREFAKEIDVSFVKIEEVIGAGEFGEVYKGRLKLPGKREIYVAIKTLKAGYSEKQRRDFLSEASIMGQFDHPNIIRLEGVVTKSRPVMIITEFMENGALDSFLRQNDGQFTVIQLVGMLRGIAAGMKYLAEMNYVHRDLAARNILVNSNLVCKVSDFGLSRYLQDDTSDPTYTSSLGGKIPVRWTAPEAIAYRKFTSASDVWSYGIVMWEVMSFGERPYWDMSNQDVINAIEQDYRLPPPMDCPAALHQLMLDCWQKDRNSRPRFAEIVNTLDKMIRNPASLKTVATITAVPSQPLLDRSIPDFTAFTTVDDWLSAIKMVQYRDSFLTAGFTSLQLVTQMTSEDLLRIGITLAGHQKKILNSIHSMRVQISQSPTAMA

Documented phosphorylation enrichment of LDYNEYFRGLN [HPRT1_Y198_D201G] : 1.28

Documented phosphorylation enrichment of KRLYAYKMLMA [TMC2_Y209_Q205R] : 0.492

Documented phosphorylation enrichment of GVRLFYRVRES [RB1_Y454_M457R_YF] : 0.471

Documented phosphorylation enrichment of FQNSLYAPDFS [FAM92A_Y226_R222Q_YF] : 4.07

Documented phosphorylation enrichment of LLANAYIFDVQ [L1CAM_Y418_V421D_YF] : 0.933

Documented phosphorylation enrichment of KGELRYMHSPV [ABCD1_Y281_R285P] : 0.393

Documented phosphorylation enrichment of ADEEFYEIIAA [FEStide_F_2014] : 0.886

Documented phosphorylation enrichment of PFQGAYLKINK [MYO1B_Y967_E969K] : 0.539

Documented phosphorylation enrichment of SGSIHYSCVPR [GLB1_Y57_R59C] : 0.591

====

target: Fes (UniProt P07332); assay: phosphorylation enrichment, bacterial display (enrichment ratio); higher = better substrate or ligand; peptides without Tyr show the background
Sequence (P07332 whole entry, looked up): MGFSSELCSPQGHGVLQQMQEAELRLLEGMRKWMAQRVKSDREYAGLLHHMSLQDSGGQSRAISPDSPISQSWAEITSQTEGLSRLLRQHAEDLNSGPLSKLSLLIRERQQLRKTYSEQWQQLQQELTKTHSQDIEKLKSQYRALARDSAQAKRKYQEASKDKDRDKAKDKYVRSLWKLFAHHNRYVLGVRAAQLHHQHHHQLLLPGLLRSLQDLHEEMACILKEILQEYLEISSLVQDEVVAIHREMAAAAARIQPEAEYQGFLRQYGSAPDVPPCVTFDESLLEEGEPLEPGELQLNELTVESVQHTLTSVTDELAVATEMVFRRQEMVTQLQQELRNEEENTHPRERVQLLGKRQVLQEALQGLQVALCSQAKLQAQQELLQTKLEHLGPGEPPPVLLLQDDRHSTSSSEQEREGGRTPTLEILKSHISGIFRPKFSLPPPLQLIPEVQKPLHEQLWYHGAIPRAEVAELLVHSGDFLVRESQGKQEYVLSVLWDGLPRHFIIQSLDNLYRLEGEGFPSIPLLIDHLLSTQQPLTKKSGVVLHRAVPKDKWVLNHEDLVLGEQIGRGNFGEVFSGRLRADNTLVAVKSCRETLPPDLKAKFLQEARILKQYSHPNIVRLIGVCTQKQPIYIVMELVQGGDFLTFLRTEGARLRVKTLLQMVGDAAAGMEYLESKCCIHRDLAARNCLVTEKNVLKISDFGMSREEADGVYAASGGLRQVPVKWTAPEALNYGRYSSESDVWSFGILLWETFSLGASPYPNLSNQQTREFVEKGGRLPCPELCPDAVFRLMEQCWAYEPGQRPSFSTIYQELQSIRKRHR
Response key: 1 means phosphorylation enrichment >= 0.9; 0 means phosphorylation enrichment < 0.9.

Hi team, for VSAPEYGPKLK [TBC1D14_Y46_L41V] , is the recorded phosphorylation enrichment at or above 0.9?
0

Hi team, for ATARPYRPYII [LRP5_Y1528] , is the recorded phosphorylation enrichment at or above 0.9?
0

Hi team, for EAMPDYKKQLR [SPATA18_Y229_S227P] , is the recorded phosphorylation enrichment at or above 0.9?
0

Hi team, for DTDSSYCIPTA [GAB1_Y373] , is the recorded phosphorylation enrichment at or above 0.9?
1

Hi team, for CPPELYALMSD [ZAP70_Y569] , is the recorded phosphorylation enrichment at or above 0.9?
1

Hi team, for VASSLYDIFAR [GLB1_Y294_L297F] , is the recorded phosphorylation enrichment at or above 0.9?
1

Hi team, for FQNSLYAPDFS [FAM92A_Y226_R222Q_YF] , is the recorded phosphorylation enrichment at or above 0.9?
1

====

So I've got a bunch of sequences here, and I need their phosphorylation enrichment values.
target: EPHB2 (UniProt P29323); experiment: phosphorylation enrichment, bacterial display (enrichment ratio); higher = better substrate or ligand; peptides without Tyr show the background
Sequence (P29323 whole entry, looked up): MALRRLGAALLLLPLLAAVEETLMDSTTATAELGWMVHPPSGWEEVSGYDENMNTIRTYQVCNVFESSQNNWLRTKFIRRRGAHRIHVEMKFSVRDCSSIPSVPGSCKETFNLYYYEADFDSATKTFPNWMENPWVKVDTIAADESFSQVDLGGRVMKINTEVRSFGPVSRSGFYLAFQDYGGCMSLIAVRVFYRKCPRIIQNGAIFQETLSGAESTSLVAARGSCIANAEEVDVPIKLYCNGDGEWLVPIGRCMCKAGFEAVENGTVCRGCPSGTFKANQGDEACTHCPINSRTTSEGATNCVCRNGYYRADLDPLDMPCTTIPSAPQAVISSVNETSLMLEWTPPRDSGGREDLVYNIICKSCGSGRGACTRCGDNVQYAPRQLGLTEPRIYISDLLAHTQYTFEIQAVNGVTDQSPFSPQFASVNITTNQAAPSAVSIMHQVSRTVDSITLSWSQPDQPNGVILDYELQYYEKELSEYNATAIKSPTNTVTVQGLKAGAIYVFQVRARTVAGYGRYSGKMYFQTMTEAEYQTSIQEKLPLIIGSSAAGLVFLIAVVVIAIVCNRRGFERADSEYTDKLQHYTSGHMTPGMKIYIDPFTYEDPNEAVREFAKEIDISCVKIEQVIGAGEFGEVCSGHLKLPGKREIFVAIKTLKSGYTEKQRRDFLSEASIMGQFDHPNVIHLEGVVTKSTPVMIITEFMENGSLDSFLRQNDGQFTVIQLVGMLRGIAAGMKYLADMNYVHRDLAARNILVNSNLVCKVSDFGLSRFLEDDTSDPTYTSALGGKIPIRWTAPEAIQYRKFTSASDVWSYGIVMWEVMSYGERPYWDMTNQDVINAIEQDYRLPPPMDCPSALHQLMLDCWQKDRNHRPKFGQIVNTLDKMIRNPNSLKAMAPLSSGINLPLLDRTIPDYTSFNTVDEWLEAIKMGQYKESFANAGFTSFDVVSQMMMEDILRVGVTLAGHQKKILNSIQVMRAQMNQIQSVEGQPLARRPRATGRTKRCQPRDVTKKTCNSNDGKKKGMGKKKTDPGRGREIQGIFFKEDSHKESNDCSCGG
No unit in the answer, please; the number alone is enough.

Known value: EPHB2 (UniProt P29323) phosphorylation enrichment of the sequence ARAFIYAIIPA [ACKtide_2014] equals 2.22

Known value: EPHB2 (UniProt P29323) phosphorylation enrichment of the sequence ISPPVYLTNEW [NRK_Y885] equals 0.724

Known value: EPHB2 (UniProt P29323) phosphorylation enrichment of the sequence RAMRRYLEWGE [ERBB3_Y680_R683W] equals 0.398

Known value: EPHB2 (UniProt P29323) phosphorylation enrichment of the sequence NQDRTYYESVR [SPEN_Y632] equals 0.661

Known value: EPHB2 (UniProt P29323) phosphorylation enrichment of the sequence GLDGSYLPRDS [SH2D1A_Y29_L31P] equals 0.4

Known value: EPHB2 (UniProt P29323) phosphorylation enrichment of the sequence RGVTHYILQTF [SLC39A4_Y359] equals 0.703

Known value: EPHB2 (UniProt P29323) phosphorylation enrichment of the sequence CGASGYSATST [CERT1_Y143_S138C] equals 0.706

Known value: EPHB2 (UniProt P29323) phosphorylation enrichment of the sequence CTTIHYNFVCN [TP53_Y234_M237V_YF] equals 0.654

Known value: EPHB2 (UniProt P29323) phosphorylation enrichment of the sequence RNYGTYTAGLS [RHBDD1_Y264_D262G] equals 3.23

Known value: EPHB2 (UniProt P29323) phosphorylation enrichment of the sequence KFDLMYAKLAF [TUBA1A_Y399_R402L] equals 0.619

Known value: EPHB2 (UniProt P29323) phosphorylation enrichment of the sequence ADMETYLLEKS [MYH7_Y266_I263M] equals 0.581

Known value: EPHB2 (UniProt P29323) phosphorylation enrichment of the sequence RNDQVYQPLRD [CD3D_Y149] equals 1.18

Known value: EPHB2 (UniProt P29323) phosphorylation enrichment of the sequence KGELCYMHSRV [ABCD1_Y281_R280C] equals 0.581

Known value: EPHB2 (UniProt P29323) phosphorylation enrichment of the sequence ALHRPYGCDVE [ABL2_Y80] equals 0.456

Known value: EPHB2 (UniProt P29323) phosphorylation enrichment of the sequence FLGEEYVKAVG [TF_Y674_YF] equals 0.453

Known value: EPHB2 (UniProt P29323) phosphorylation enrichment of the sequence DPLLTHRFPPK [LMNA_Y481_Y481H] equals 0.242

Known value: EPHB2 (UniProt P29323) phosphorylation enrichment of the sequence GLGGVYGGASG [KRT8_Y54_G53V] equals 0.355

Known value: EPHB2 (UniProt P29323) phosphorylation enrichment of the sequence PIPAAYNKYDQ [CDC73_Y290_R292K] equals 0.599

Known value: EPHB2 (UniProt P29323) phosphorylation enrichment of the sequence EVVGRYSVHFA [MLH1_Y183_N187Y_YF] equals 0.49

Known value: EPHB2 (UniProt P29323) phosphorylation enrichment of the sequence HTLQLYRCREE [ALPK3_Y342] equals 0.588

Known value: EPHB2 (UniProt P29323) phosphorylation enrichment of the sequence AKAFIYASHIV [ZNF573_Y229_G224A] equals 0.771

Known value: EPHB2 (UniProt P29323) phosphorylation enrichment of the sequence LEQRPYRRGSE [KCNJ12_Y427_E430G] equals 0.478

Known value: EPHB2 (UniProt P29323) phosphorylation enrichment of the sequence ADGLEYSRTEL [MMUT_Y287_G291E] equals 0.572

Known value: EPHB2 (UniProt P29323) phosphorylation enrichment of the sequence EAEALYQTKFQ [KRT73_Y325] equals 0.645

Known value: EPHB2 (UniProt P29323) phosphorylation enrichment of the sequence YVKEPYIQSRF [HIPK4_Y175] equals 0.465

Known value: EPHB2 (UniProt P29323) phosphorylation enrichment of the sequence ALIKAYDKAVA [SMN1_Y43] equals 0.626

Known value: EPHB2 (UniProt P29323) phosphorylation enrichment of the sequence KFVVVYFREID [IL17RB_Y447_YF] equals 0.523

Known value: EPHB2 (UniProt P29323) phosphorylation enrichment of the sequence QRASDYFSQQM [GBP6_Y333_A331S_YF] equals 0.854

Known value: EPHB2 (UniProt P29323) phosphorylation enrichment of the sequence INNKMYDPKMN [ENPP1_Y280_D276N] equals 0.432

Known value: EPHB2 (UniProt P29323) phosphorylation enrichment of the sequence NLAAQYTTVGR [SGSH_Y240_D235N] equals 0.312

Known value: EPHB2 (UniProt P29323) phosphorylation enrichment of the sequence QEGPEYWDRNT [HLA-B_Y83] equals 0.741

Known value: EPHB2 (UniProt P29323) phosphorylation enrichment of the sequence KIVQDYLEKFY [MMP8_Y36_T32I] equals 0.735
